Listed next: entries and their corresponding log10(IC50).
tgt: Ba/F3-ETV6-NTRK3 (Homo sapiens)
Construct: Ba/F3 cells with TPM3-NTRK1 or ETV6-NTRK3 fusion mutation gene stably overexpressed named Ba/F3-TPM3-NTRK1 and Ba/F3-ETV6-NTRK3; fused on or other part: P41212 (Transcription factor ETV6)
Sequence (Q16288 whole entry, the tested form may be a part): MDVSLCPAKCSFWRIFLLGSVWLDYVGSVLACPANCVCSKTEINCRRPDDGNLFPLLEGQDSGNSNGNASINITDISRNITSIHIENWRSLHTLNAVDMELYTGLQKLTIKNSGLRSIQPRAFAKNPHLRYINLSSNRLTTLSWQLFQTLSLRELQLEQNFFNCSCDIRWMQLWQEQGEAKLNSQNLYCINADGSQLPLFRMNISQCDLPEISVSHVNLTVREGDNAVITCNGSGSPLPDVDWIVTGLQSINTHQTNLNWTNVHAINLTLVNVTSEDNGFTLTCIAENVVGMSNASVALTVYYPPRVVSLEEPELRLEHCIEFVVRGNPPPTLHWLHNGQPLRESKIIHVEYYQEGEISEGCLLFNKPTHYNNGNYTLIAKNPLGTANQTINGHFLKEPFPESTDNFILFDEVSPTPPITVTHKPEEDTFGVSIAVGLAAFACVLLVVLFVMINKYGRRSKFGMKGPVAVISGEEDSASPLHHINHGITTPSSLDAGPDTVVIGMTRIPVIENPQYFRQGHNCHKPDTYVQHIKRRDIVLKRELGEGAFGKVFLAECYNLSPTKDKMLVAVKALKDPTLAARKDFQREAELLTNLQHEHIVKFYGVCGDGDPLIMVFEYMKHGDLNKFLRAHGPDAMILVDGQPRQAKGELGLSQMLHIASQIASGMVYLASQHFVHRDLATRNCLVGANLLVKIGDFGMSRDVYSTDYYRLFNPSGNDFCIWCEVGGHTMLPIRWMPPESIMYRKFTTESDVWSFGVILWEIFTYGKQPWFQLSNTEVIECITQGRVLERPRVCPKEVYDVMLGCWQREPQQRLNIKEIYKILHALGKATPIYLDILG
assay-procedure: Ba/F3-ETV6-NTRK3 cells proliferation assay
experimental-parameters: 72 h, CellTiter Glo
Record value = log10 of IC50 given in nM.

Sample records with log10(IC50):
molecule: N#Cc1cc2nc(-c3cnn4ccc(N5CCC[C@@H]5c5cc(F)ccc5F)nc34)[nH]c2cc1N1CCC[C@H]1C(=O)O
log10(IC50): 1.29

molecule: Fc1ccc(F)c([C@H]2CCCN2c2ccn3ncc(-c4nnc(C5CCNCC5)[nH]4)c3n2)c1
log10(IC50): 0.39

(Q) Fill in reported log10(IC50) for this entry: `N#Cc1cccc(-c2nnc(-c3cnn4ccc(N5CCC[C@@H]5c5cc(F)ccc5F)nc34)[nH]2)c1`
(A) 0.26

(Q) Fill in reported log10(IC50) for this entry: `N#Cc1cc2nc(-c3cnn4ccc(N5CCC[C@@H]5c5cc(F)ccc5F)nc34)[nH]c2cc1OC(F)F`
(A) 0.75

(Q) Fill in reported log10(IC50) for this entry: `Fc1ccc(F)c([C@H]2CCCN2c2ccn3ncc(-c4nnc(-c5ccc(C(F)(F)F)nc5)[nH]4)c3n2)c1`
(A) 1.00

(Q) Fill in reported log10(IC50) for this entry: `CC(C)(O)c1nnc(-c2cnn3ccc(N4CCC[C@@H]4c4cc(F)ccc4F)nc23)[nH]1`
(A) 0.75

(Q) Fill in reported log10(IC50) for this entry: C[S+]([O-])c1cc2nc(-c3cnn4ccc(N5CCC[C@@H]5c5cc(F)ccc5F)nc34)[nH]c2cc1C#N (some centres unmarked)
(A) 0.42

(Q) Fill in reported log10(IC50) for this entry: `N#Cc1cc2nc(-c3cnn4ccc(N5CCC[C@@H]5c5cc(F)ccc5F)nc34)[nH]c2cc1C#N`
(A) 0.19
